molecular target: FAD-linked sulfhydryl oxidase ALR (Homo sapiens); assay: ALR-catalysed DTT oxidation blockers – biochemical, H2O2 detection, HRP-luminol luminescence, single point, primary screen (AID 485317); details: purified ALR, hits give high values, concentration not given here
Hit rate of the full screen: of about 290,000 compounds, about 11,000 (3.8%) were called active. This excerpt belongs to a sample that is enriched for actives.
Please provide measured inhibition for the entries that follow.
Quick note: give the figure in %, leave out the unit.

What value of inhibition has been recorded for this entry: C/C(=C/c1ccccc1)C(=O)N1CCN(c2ccccc2)CC1
44

What value of inhibition has been recorded for this entry: CCCC(=O)OCC(=O)Nc1cc(Cl)ccc1[N+](=O)[O-]
-5.98

What value of inhibition has been recorded for this entry: CN(C(=O)CSc1nc(C2CC2)nc2ccccc12)c1nc(-c2ccccc2)cs1
98.6

What value of inhibition has been recorded for this entry: C=CCC[C@H](Cc1ccc(F)cc1)C(=O)OC[C@@H](NC(=O)[C@@H](CC=C)CC(=O)N[C@H](CO)Cc1ccccc1)C(C)(C)C
2.91

What value of inhibition has been recorded for this entry: CCCc1cc(=O)[nH]c(SCC(=O)Nc2ccc(S(=O)(=O)N3CCCC3)cc2)n1
-1.58

What value of inhibition has been recorded for this entry: O=C(CSCc1ccc([N+](=O)[O-])cc1)NCCSCc1ccccc1
-10.2

What value of inhibition has been recorded for this entry: COc1ccc(OCC(=O)Nc2cc(C)c(Cl)cc2OC)c([N+](=O)[O-])c1
-2.93

What value of inhibition has been recorded for this entry: CN(NS(=O)(=O)c1cccs1)c1ncc(C(F)(F)F)cc1Cl
-1.63

What value of inhibition has been recorded for this entry: O=C(CCc1ccccc1F)N1CCN(c2ccccc2)CC1
88

What value of inhibition has been recorded for this entry: CC(=N\NC(=O)c1cc(Br)ccc1O)/C(=N/O)C(=O)Nc1ccccc1
85.8

What value of inhibition has been recorded for this entry: Cc1[nH]n(C(N)=S)c(=O)c1N=Nc1ccc(Cl)cc1Cl
96.2

What value of inhibition has been recorded for this entry: CSCCC1NC(=O)N(CC(=O)Nc2cccc(S(=O)(=O)N3CCCCCC3)c2)C1=O (configuration not stated)
9.93

What value of inhibition has been recorded for this entry: COc1ccc(NC(=O)CSc2nc(NS(=O)(=O)c3ccc(C)cc3)cc(=O)[nH]2)cc1
98.9

What value of inhibition has been recorded for this entry: CN(c1ccccc1)S(=O)(=O)c1ccc(C(=O)N2CCN(c3ccccc3Cl)CC2)cc1
-8.17

What value of inhibition has been recorded for this entry: O=C(O)c1cccc(NC(=O)c2cc(-c3cccc(Cl)c3)nc3ccccc23)c1
98.6

What value of inhibition has been recorded for this entry: CCN1C(=O)c2cccc3c(N)ccc1c23
99.2

What value of inhibition has been recorded for this entry: CN1C(=O)c2cccc3c(N)ccc(c23)C1=O
-15.1

What value of inhibition has been recorded for this entry: O=C(CCSc1ccccc1)N1CCN(c2ccccc2F)CC1
-13.1

What value of inhibition has been recorded for this entry: C#CCN(N(C)c1ncc(C(F)(F)F)cc1Cl)S(=O)(=O)c1ccc2ccccc2c1
89.2

What value of inhibition has been recorded for this entry: CC(=O)c1cccc(OCC(=O)OCC(=O)Nc2cc(S(=O)(=O)N3CCCCC3)ccc2C)c1
-1.77

What value of inhibition has been recorded for this entry: Cc1ccc(C(=O)OCC(=O)N2CCCCCC2)cc1S(=O)(=O)N1CCOCC1
-22.6

What value of inhibition has been recorded for this entry: Cc1nn(CC#N)c(=O)n1N(C)c1ncc(C(F)(F)F)cc1Cl
0.914

What value of inhibition has been recorded for this entry: Cc1nc2nc(C)c(CCC(=O)N3CCN(c4ccccc4)CC3)c(C)n2n1
92.8

What value of inhibition has been recorded for this entry: CCCC[C@@H]1CN=C(N)N1CCc1cccc(F)c1
-12.6

What value of inhibition has been recorded for this entry: CCOC(=O)Cc1csc(NC(=O)C(C)(C)C)n1
-0.763

What value of inhibition has been recorded for this entry: CCOc1ccc(C(=O)NCC(=O)N2CCN(c3ccc(C(F)(F)F)cn3)CC2)cc1
1.77

What value of inhibition has been recorded for this entry: COc1ccc(C(CNC(=O)c2ccc(S(=O)(=O)Nc3ccccc3C)cc2)N2CCOCC2)cc1 (configuration not stated)
1.74

What value of inhibition has been recorded for this entry: CC(CC(=O)N1CCN(c2ccccc2)CC1)c1ccccc1 (configuration not stated)
98.4

What value of inhibition has been recorded for this entry: O=C(COC(=O)Cc1ccc([N+](=O)[O-])cc1)NC1CCCCCC1
3.75

What value of inhibition has been recorded for this entry: COC(=O)c1ccc(COC(=O)CNC(=O)c2cccc(OC)c2)o1
0.754

What value of inhibition has been recorded for this entry: CC1=NN(C(N)=S)C(=O)C1N=Nc1cc(Cl)ccc1Cl (configuration not stated)
34.1

What value of inhibition has been recorded for this entry: COc1ccccc1N(CC(=O)Nc1ccc(C)cc1Cl)S(=O)(=O)c1cccs1
-3.47

====

target: FAD-linked sulfhydryl oxidase ALR (Homo sapiens) (UniProt P55789); assay: ALR-catalysed DTT oxidation blockers – biochemical, H2O2 detection, HRP-luminol luminescence, single point, primary screen (AID 485317); conditions: purified ALR, hits give high values, concentration not given here
Sequence (P55789 whole entry, looked up): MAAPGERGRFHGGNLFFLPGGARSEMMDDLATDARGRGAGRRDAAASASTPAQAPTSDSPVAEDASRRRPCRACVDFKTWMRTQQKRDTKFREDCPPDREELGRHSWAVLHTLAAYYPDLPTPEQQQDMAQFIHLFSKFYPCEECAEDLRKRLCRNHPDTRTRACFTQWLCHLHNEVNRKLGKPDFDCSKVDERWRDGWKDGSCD
The campaign covered roughly 290,000 compounds. About 11,000 (3.8%) were called active. Shown is part of a subset that was picked to be rich in actives.
Please provide measured inhibition for the entries that follow.
Quick note: give the figure in %, leave out the unit.

What value of inhibition has been recorded for this entry: Cc1nn(C)cc1C(=O)NNC(=S)Nc1ccc(Cl)cc1
49.6

What value of inhibition has been recorded for this entry: Cn1cc(Cl)c(C(=O)NNC(=S)Nc2cccc(Cl)c2)n1
89.2

What value of inhibition has been recorded for this entry: Cc1ccc(NC(=O)C(C)Sc2nnc(C3CC3)n2C2CC2)cc1S(=O)(=O)N1CCOCC1 (stereo not drawn)
96.1

What value of inhibition has been recorded for this entry: COC(=O)c1cccc(C(=O)N2CCC(CCC(=O)NCc3ccc(F)cc3)CC2)c1
-3.28

What value of inhibition has been recorded for this entry: Cc1cccc(-n2cnc(C(=O)NNC(=S)Nc3ccccc3)c2)n1
47.8

What value of inhibition has been recorded for this entry: Cc1cccc(C(=O)N2CCCC(Nc3ccc(C(C)C)cc3)C2)n1 (stereo not drawn)
97.8

What value of inhibition has been recorded for this entry: COc1ccc(NC2CCCN(C(=O)c3ccncc3)C2)cc1 (stereo not drawn)
95.8

What value of inhibition has been recorded for this entry: Cc1ccc(NC(=O)NC2CCCCC2)cc1S(=O)(=O)N1CCOCC1
74.4

What value of inhibition has been recorded for this entry: COc1ccc(S(=O)(=O)N2CCCCCC2)cc1C(=O)N(C)Cc1cccc(OC)c1OC
-1.21

What value of inhibition has been recorded for this entry: COc1ccc(C(=O)Nc2cccc(NC(=O)c3ccc(OC)cc3OC)n2)c(OC)c1
-5.93

What value of inhibition has been recorded for this entry: O=C(Nc1ccc2c(c1)OCCO2)C1CCCN(c2ncccn2)C1 (stereo not drawn)
-3.09

What value of inhibition has been recorded for this entry: N#Cc1ccc(C2=CC(=O)C[C@H](c3ccc(Cl)cc3)C2)cc1
-5.77

What value of inhibition has been recorded for this entry: O=C(NCC(c1cccs1)N1CCOCC1)c1cc(Cl)ccc1[N+](=O)[O-] (stereo not drawn)
-35.8

====

biological target: FAD-linked sulfhydryl oxidase ALR (Homo sapiens) (UniProt P55789); assay: ALR-catalysed DTT oxidation blockers – biochemical, H2O2 detection, HRP-luminol luminescence, single point, primary screen (AID 485317); settings: purified ALR, hits give high values, concentration not given here
Out of some 290,000 compounds screened, about 11,000 (3.8%) were called active. The sample as a whole holds a higher share of actives than the screen did.
Please provide measured inhibition for the entries that follow.
Quick note: give the figure in %, leave out the unit.

What value of inhibition has been recorded for this entry: CC(=O)N1CCc2c(sc(NC(=O)CCS(=O)(=O)c3ccc(C)cc3)c2C(N)=O)C1
-33.3

What value of inhibition has been recorded for this entry: CC(=O)Nc1ccc(NC(=O)C(C)OC(=O)C2CC(=O)N(CCc3ccccc3)C2)cc1 (configuration not stated)
-1.82

What value of inhibition has been recorded for this entry: COc1cc(Cl)c(C)cc1NC(=O)CSc1nnc(-c2ccco2)n1CC(C)C
2.64

What value of inhibition has been recorded for this entry: O=C(c1cc2ccccc2o1)N1CCN(S(=O)(=O)c2ccc(Cl)s2)CC1
-0.962

What value of inhibition has been recorded for this entry: O=C(COC(=O)c1ncc(Cl)c(Cl)c1Cl)NNC(=O)c1ccccc1
8.83

What value of inhibition has been recorded for this entry: O=C(CCc1nc2sc3c(c2c(=O)[nH]1)CCCC3)NCC(=O)Nc1ccccc1Br
18.6

What value of inhibition has been recorded for this entry: Cc1ccnc(N2CCCC(C(=O)NC3CC3)C2)n1 (configuration not stated)
1.74

What value of inhibition has been recorded for this entry: Cc1cc(NC(=O)CSc2nnc(-c3ccco3)n2N)no1
-0.748

What value of inhibition has been recorded for this entry: O=C(Nc1ccon1)c1nc[nH]c1C(=O)NCc1ccccc1
-9.59

What value of inhibition has been recorded for this entry: CC(=O)Nc1ccc(C(=O)CSc2nc3ccc(C)cc3[nH]2)cc1
97.9

What value of inhibition has been recorded for this entry: O=C1[C@H]2[C@@H](c3ccc(F)cc3)N3C(=O)N(c4ccc(C(F)(F)F)cc4)C(=O)[C@@]3(Cc3ccccc3)[C@H]2C(=O)N1C1CCCCC1
2.08

What value of inhibition has been recorded for this entry: CCn1c(SCC(=O)Nc2cc(C)c(Cl)cc2OC)nnc1-c1ccco1
98.5
